target: recombinant rat PAI-1 (Rattus norvegicus); assay: biochemical; conditions: read-out: Inhibition Rate of PAI-1 Activity (%)
Sequence (P20961 24-402): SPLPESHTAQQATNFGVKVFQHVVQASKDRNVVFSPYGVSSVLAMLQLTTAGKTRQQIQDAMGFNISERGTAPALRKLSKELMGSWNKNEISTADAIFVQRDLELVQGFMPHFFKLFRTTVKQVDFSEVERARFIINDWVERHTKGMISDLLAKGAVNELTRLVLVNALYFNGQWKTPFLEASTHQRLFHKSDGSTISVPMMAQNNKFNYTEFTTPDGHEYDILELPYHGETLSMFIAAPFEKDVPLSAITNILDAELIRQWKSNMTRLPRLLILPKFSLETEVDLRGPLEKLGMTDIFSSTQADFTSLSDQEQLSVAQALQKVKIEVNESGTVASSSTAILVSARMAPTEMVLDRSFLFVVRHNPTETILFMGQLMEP
endpoint.name: inhibition at 1 µM

INSERT INTO measurements (chem_smiles, observed) VALUES
  ('CCCOc1ccc(-c2ccc(OC(F)(F)F)cc2)cc1N(Cc1ccc(C(C)(C)C)cc1)C(=O)C(=O)O', '14%'),
  ('CC(C)Oc1ccc(N(Cc2ccc(C(C)(C)C)cc2)C(=O)C(=O)O)cc1-c1ccc(OC(F)(F)F)cc1', '17%'),
  ('CC(C)(C)c1ccc(CN(C(=O)C(=O)O)c2ccc(Cl)c(-c3ccc(OC(F)(F)F)cc3)c2)cc1', '27%'),
  ('CC(C)(C)c1ccc(CN(C(=O)C(=O)O)c2cccc(-c3ccc(OC(F)(F)F)cc3)c2)cc1', '16%');

====

molecular target: recombinant human PAI-1 (Homo sapiens, UniProt P05121); assay: Test Example 2: Human PAI-1 Inhibitory Activity (pH 7.4 HEPES buffer, 10 minutes incubation with two-chain tPA); type: biochemical; design: purchased Molecular Innovations, Inc; settings: read-out: Inhibition Rate of PAI-1 Activity (%)
Sequence (P05121 24-402): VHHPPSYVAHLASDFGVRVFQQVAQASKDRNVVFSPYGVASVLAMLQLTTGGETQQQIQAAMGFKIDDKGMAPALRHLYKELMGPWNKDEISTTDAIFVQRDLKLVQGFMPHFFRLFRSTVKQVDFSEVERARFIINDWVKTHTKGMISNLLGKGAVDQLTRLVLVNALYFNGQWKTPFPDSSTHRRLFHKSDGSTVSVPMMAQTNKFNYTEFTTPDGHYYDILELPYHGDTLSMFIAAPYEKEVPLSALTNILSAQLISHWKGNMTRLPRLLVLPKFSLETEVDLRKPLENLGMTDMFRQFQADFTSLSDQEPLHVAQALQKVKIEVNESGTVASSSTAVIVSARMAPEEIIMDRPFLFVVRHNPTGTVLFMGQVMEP
endpoint.name: inhibition at 1 µM (%)

INSERT INTO measurements (chem_smiles, endpoint_name, scale_unit, modifier_sign, observed) VALUES
  ('CC(C)(C)c1ccc(COc2ccc(NS(=O)(=O)c3ccc(OC(F)(F)F)cc3)cc2CCC(=O)O)cc1', 'inhibition at 1 µM', '%', '=', 41),
  ('CC(C)(C)c1ccc(COc2ccc(-c3ccc(OC(F)(F)F)cc3)cc2CCC(=O)O)cc1', 'inhibition at 1 µM', '%', '=', 34),
  ('CC(C)(C)c1ccc(Oc2ccc(Nc3ccc(OC(F)(F)F)cc3)cc2CCC(=O)O)cc1', 'inhibition at 1 µM', '%', '=', 25),
  ('CCC(CC)Oc1ccc(-c2ccc(/C=C/C(=O)O)c(Oc3ccc(C(C)(C)C)cc3)c2)cc1', 'inhibition at 1 µM', '%', '>', 99),
  ('CC(C)(C)c1ccc(Cc2cc(-c3ccc(OC(F)(F)F)cc3)ccc2OCC(=O)O)cc1', 'inhibition at 1 µM', '%', '=', 81),
  ('CCCCc1ccc(Oc2cc(-c3ccc(OC(F)(F)F)cc3)ccc2OCC(=O)O)cc1', 'inhibition at 1 µM', '%', '=', 70),
  ('CCC(C)(C)c1ccc(Oc2cc(-c3ccc(OC(F)(F)F)cc3)ccc2CCC(=O)O)cc1', 'inhibition at 1 µM', '%', '=', 94),
  ('CCCOc1ccc(-c2ccc(OC(F)(F)F)cc2)cc1N(Cc1ccc(C(C)(C)C)cc1)C(=O)C(=O)O', 'inhibition at 1 µM', '%', '=', 33);

====

target: recombinant human PAI-1 (Homo sapiens); assay: Test Example 2: Human PAI-1 Inhibitory Activity (pH 7.4 HEPES buffer, 10 minutes incubation with two-chain tPA); assay type: biochemical; set-up: purchased Molecular Innovations, Inc; details: read-out: Inhibition Rate of PAI-1 Activity (%)
endpoint.name: inhibition at 0.1 µM (%)

INSERT INTO results (molecule, observed) VALUES
  ('CCCCCOc1ccc(-c2ccc(OC(F)(F)F)cc2)cc1N(CCCSc1ccccc1)C(=O)C(=O)O', 0),
  ('CC(C)(C)Oc1ccc(Oc2cc(-c3ccc(OC(F)(F)F)cc3)ccc2CCC(=O)O)cc1', 15),
  ('O=C(O)C(=O)N(CCCCc1ccccc1)c1cc(-c2ccc(OC(F)(F)F)cc2)ccc1OCCCCc1ccccc1', 5),
  ('CCCCC(c1ccc(C(C)(C)C)cc1)N(C(=O)C(=O)O)c1ccc(-c2ccc(OC(F)(F)F)cc2)cc1 (stereo not shown)', 0),
  ('CC(C)(C)c1ccc(Oc2ccc(Nc3ccc(OC(F)(F)F)cc3)cc2/C=C/C(=O)O)cc1', 0),
  ('CCCCCOc1ccc(-c2ccc(OC(F)(F)F)cc2)cc1N(CCCCc1ccc(F)cc1)C(=O)C(=O)O', 13),
  ('CCCCC(Oc1cc(-c2ccc(OC(F)(F)F)cc2)ccc1OCCCCc1ccc(F)cc1)C(=O)O (stereo not shown)', 0);

====

molecular target: recombinant rat PAI-1 (Rattus norvegicus); assay: biochemical; conditions: read-out: Inhibition Rate of PAI-1 Activity (%)
endpoint.name: inhibition at 3 µM (%)

INSERT INTO assay_data (chem_smiles, endpoint_name, observed) VALUES
  ('CC(C)(C)c1ccc(COc2cc(-c3ccc(OC(F)(F)F)cc3)ccc2CCC(=O)O)cc1', 'inhibition at 3 µM', 56),
  ('CCN(CC)c1ccc(N(CCCc2ccccc2)C(=O)C(=O)O)c(-c2ccc(OC(F)(F)F)cc2)c1', 'inhibition at 3 µM', 46),
  ('CC(C)(C)c1ccc(CN(C(=O)C(=O)O)c2ccc(-c3ccc(OC(F)(F)F)cc3)cc2Cl)cc1', 'inhibition at 3 µM', 70),
  ('CC(C)(Oc1cc(-c2ccc(OC(F)(F)F)cc2)ccc1OCc1ccc(C(C)(C)C)cc1)C(=O)O', 'inhibition at 3 µM', 85),
  ('O=C(O)CCc1c(Oc2ccc(OC(F)(F)F)cc2)cccc1Oc1ccc(OC(F)(F)F)cc1', 'inhibition at 3 µM', 39),
  ('CN(C)c1ccc(N(Cc2ccc(C(C)(C)C)cc2)C(=O)C(=O)O)cc1-c1ccc(OC(F)(F)F)cc1', 'inhibition at 3 µM', 77),
  ('CCCCCOc1ccc(-c2ccc(OC(F)(F)F)cc2)cc1N(CCCCc1ccccc1)C(=O)C(=O)O', 'inhibition at 3 µM', 92);

====

molecular target: recombinant human PAI-1 (Homo sapiens, UniProt P05121); assay: Test Example 2: Human PAI-1 Inhibitory Activity (pH 7.4 HEPES buffer, 10 minutes incubation with two-chain tPA); assay type: biochemical; set-up: purchased Molecular Innovations, Inc; conditions: read-out: Inhibition Rate of PAI-1 Activity (%)
endpoint.name: inhibition at 3 µM (%)

INSERT INTO results (compound, system_name, scale_unit, modifier_sign, observed) VALUES
  ('CCCCCOc1ccc(-c2ccc(OC(F)(F)F)cc2)cc1N(Cc1ccc(C(C)(C)C)cc1)C(=O)C(=O)O', 'recombinant human PAI-1 (Homo sapiens, UniProt P05121)', '%', '=', 98),
  ('CCCCC(C(=O)O)N(Cc1ccc(C(C)(C)C)cc1)c1ccc(-c2ccc(OC(F)(F)F)cc2)cc1 (stereo not shown)', 'recombinant human PAI-1 (Homo sapiens, UniProt P05121)', '%', '=', 93),
  ('CC(C)(C)c1ccc(Oc2cc(Oc3ccc(OC(F)(F)F)cc3)ccc2CCC(=O)O)cc1', 'recombinant human PAI-1 (Homo sapiens, UniProt P05121)', '%', '=', 97),
  ('CC(C)(C)c1ccc(Oc2cc(-c3ccc(OC(F)(F)F)cc3)ccc2N(CCCCc2ccccc2)C(=O)C(=O)O)cc1', 'recombinant human PAI-1 (Homo sapiens, UniProt P05121)', '%', '=', 91),
  ('CC(C)(C)c1ccc(Oc2ccc(-c3ccc(C(C)(C)C)cc3)cc2OCC(=O)O)cc1', 'recombinant human PAI-1 (Homo sapiens, UniProt P05121)', '%', '>', 99),
  ('CCCCCCCOc1cc(N(CCCCc2ccccc2)C(=O)C(=O)O)ccc1-c1ccc(OC(F)(F)F)cc1', 'recombinant human PAI-1 (Homo sapiens, UniProt P05121)', '%', '>', 99),
  ('CN(C(=O)c1ccc(N(Cc2ccc(C(C)(C)C)cc2)C(=O)C(=O)O)cc1)c1ccc(OC(F)(F)F)cc1', 'recombinant human PAI-1 (Homo sapiens, UniProt P05121)', '%', '=', 24);

====

target: recombinant human PAI-1 (Homo sapiens); experiment: Test Example 2: Human PAI-1 Inhibitory Activity (pH 7.4 HEPES buffer, 10 minutes incubation with two-chain tPA); assay type: biochemical; parameters: purchased Molecular Innovations, Inc; details: read-out: Inhibition Rate of PAI-1 Activity (%)
endpoint.name: inhibition at 1 µM (%)

INSERT INTO assay_data (molecule, scale_unit, modifier_sign, observed) VALUES
  ('CC(C)(C)c1ccc(COc2cc(-c3ccc(OC(F)(F)F)cc3)ccc2OCC(=O)O)cc1 [Compound 304]', '%', '=', 23),
  ('CC(C)(C)c1ccc(CN(C(=O)C(=O)O)c2ccc(-c3ccc(OC(F)(F)F)cc3)cc2Cl)cc1 [Compound 147]', '%', '=', 35),
  ('CCCCCOc1ccc(-c2ccc(OC(F)(F)F)cc2)cc1N(CCCCc1ccc(F)cc1)C(=O)C(=O)O [Compound 382]', '%', '=', 84),
  ('CCCCCOc1ccc(-c2ccc(OC(F)(F)F)cc2)cc1N(Cc1ccc(C(C)(C)C)cc1)C(=O)C(=O)O [Compound 194]', '%', '=', 63),
  ('O=C(O)C(=O)N(CCCCc1ccccc1)c1cc(-c2ccc(OC(F)(F)F)cc2)ccc1OCCCC1CCCCC1 [Compound 656]', '%', '=', 95),
  ('CN(C)c1ccc(N(Cc2ccc(C(C)(C)C)cc2)C(=O)C(=O)O)cc1-c1ccc(OC(F)(F)F)cc1 [Compound 214]', '%', '=', 40),
  ('CCCCOc1ccc(-c2ccc(OC(F)(F)F)cc2)cc1N(Cc1ccc(C(C)(C)C)cc1)C(=O)C(=O)O [Compound 189]', '%', '=', 60),
  ('CCCCC(Oc1ccc(-c2ccc(OC(F)(F)F)cc2)cc1OCc1ccc(C(C)(C)C)cc1)C(=O)O (stereo not drawn) [Compound 310]', '%', '=', 72),
  ('CCN(CC)c1ccc(N(Cc2ccc(C(C)(C)C)cc2)C(=O)C(=O)O)c(-c2ccc(OC(F)(F)F)cc2)c1 [Compound 208]', '%', '=', 36),
  ('O=C(O)CCc1ccc(-c2ccc(OC(F)(F)F)cc2)cc1Oc1ccc(C(F)(F)F)cc1 [Compound 474]', '%', '=', 43),
  ('CCCCC(Oc1cc(Oc2ccc(OC(F)(F)F)cc2)ccc1OCCCCc1ccccc1)C(=O)O (stereo not drawn) [Compound 309]', '%', '=', 66),
  ('O=C(O)C(=O)N(CCCCc1ccccc1)c1ccc(N2CCSCC2)c(-c2ccc(OC(F)(F)F)cc2)c1 [Compound 675]', '%', '=', 95),
  ('CCCCC(Oc1cc(-c2ccc(OC(F)(F)F)cc2)ccc1OCc1ccc(C(C)(C)C)cc1)C(=O)O (stereo not drawn) [Compound 313]', '%', '=', 52),
  ('CC(C)[C@@H]1CC[C@@H](C)C[C@H]1Oc1ccc(-c2ccc(OC(F)(F)F)cc2)cc1N(CCCCc1ccccc1)C(=O)C(=O)O [Compound 639]', '%', '=', 91),
  ('CCC(CC)Oc1ccc(N(CCCc2ccccc2)C(=O)C(=O)O)cc1-c1ccc(OC(F)(F)F)cc1 [Compound 230]', '%', '=', 27),
  ('CCCCc1ccc(-c2ccc(Oc3ccc(C(C)(C)C)cc3)c(OCC(=O)O)c2)cc1 [Compound 505]', '%', '>', 99),
  ('CCCCc1ccc(CN(C(=O)C(=O)O)c2ccc(-c3ccc(C(C)(C)C)cc3)cc2)cc1 [Compound 206]', '%', '=', 66),
  ('CCC(CC)Oc1ccc(-c2ccc(OC(F)(F)F)cc2)cc1N(Cc1ccc(C(C)(C)C)cc1)C(=O)C(=O)O [Compound 199]', '%', '=', 64),
  ('CC(C)(C)c1ccc(COc2cc(-c3ccc(OC(F)(F)F)cc3)ccc2CCC(=O)O)cc1 [Compound 76]', '%', '=', 37),
  ('CC(C)c1ccc(-c2ccc(OCC(=O)O)c(Oc3ccc(C(C)(C)C)cc3)c2)cc1 [Compound 441]', '%', '=', 89),
  ('CCCCCOc1ccc(-c2ccc(C(F)(F)F)cc2)cc1N(CCCCc1ccccc1)C(=O)C(=O)O [Compound 390]', '%', '=', 79),
  ('CC(C)(C)c1ccc(Oc2cc(-c3ccc(OC(F)(F)F)cc3)ccc2CCCC(=O)O)cc1 [Compound 527]', '%', '=', 98),
  ('CC(C)(C)c1ccc(Oc2cc(-c3ccccc3OC(F)(F)F)ccc2/C=C/C(=O)O)cc1 [Compound 466]', '%', '=', 88),
  ('CC(C)(C)c1ccc(Oc2cc(-c3ccc(OC(F)(F)F)cc3)ccc2N(CCCCc2ccccc2)C(=O)C(=O)O)cc1 [Compound 635]', '%', '=', 45),
  ('CC(C)(C)c1ccc(Oc2cc(-c3ccc4ccccc4c3)ccc2/C=C/C(=O)O)cc1 [Compound 469]', '%', '=', 96),
  ('CC(C)(C)c1ccc(Oc2ccc(-c3cccc(OC(F)(F)F)c3)cc2OCC(=O)O)cc1 [Compound 329]', '%', '=', 28),
  ('Cc1cc(C)cc(Oc2cc(-c3ccc(C(C)(C)C)cc3)ccc2/C=C/C(=O)O)c1 [Compound 494]', '%', '=', 87),
  ('CCCCc1ccc(-c2ccc(OCC(=O)O)c(Oc3ccc(C(C)(C)C)cc3)c2)cc1 [Compound 443]', '%', '=', 76),
  ('CC(C)(C)c1ccc(Oc2ccc(Nc3ccc(OC(F)(F)F)cc3)cc2/C=C/C(=O)O)cc1 [Compound 431]', '%', '=', 77),
  ('CCCCCCCCCCCCCCCOc1cc(-c2ccc(OC(F)(F)F)cc2)ccc1N(CCCCc1ccccc1)C(=O)C(=O)O [Compound 385]', '%', '>', 99);
